pIC50 listing for selected compounds.
system-name: Sodium channel protein type 5 subunit alpha (Homo sapiens, UniProt Q14524)
Sequence (Q14524 whole entry): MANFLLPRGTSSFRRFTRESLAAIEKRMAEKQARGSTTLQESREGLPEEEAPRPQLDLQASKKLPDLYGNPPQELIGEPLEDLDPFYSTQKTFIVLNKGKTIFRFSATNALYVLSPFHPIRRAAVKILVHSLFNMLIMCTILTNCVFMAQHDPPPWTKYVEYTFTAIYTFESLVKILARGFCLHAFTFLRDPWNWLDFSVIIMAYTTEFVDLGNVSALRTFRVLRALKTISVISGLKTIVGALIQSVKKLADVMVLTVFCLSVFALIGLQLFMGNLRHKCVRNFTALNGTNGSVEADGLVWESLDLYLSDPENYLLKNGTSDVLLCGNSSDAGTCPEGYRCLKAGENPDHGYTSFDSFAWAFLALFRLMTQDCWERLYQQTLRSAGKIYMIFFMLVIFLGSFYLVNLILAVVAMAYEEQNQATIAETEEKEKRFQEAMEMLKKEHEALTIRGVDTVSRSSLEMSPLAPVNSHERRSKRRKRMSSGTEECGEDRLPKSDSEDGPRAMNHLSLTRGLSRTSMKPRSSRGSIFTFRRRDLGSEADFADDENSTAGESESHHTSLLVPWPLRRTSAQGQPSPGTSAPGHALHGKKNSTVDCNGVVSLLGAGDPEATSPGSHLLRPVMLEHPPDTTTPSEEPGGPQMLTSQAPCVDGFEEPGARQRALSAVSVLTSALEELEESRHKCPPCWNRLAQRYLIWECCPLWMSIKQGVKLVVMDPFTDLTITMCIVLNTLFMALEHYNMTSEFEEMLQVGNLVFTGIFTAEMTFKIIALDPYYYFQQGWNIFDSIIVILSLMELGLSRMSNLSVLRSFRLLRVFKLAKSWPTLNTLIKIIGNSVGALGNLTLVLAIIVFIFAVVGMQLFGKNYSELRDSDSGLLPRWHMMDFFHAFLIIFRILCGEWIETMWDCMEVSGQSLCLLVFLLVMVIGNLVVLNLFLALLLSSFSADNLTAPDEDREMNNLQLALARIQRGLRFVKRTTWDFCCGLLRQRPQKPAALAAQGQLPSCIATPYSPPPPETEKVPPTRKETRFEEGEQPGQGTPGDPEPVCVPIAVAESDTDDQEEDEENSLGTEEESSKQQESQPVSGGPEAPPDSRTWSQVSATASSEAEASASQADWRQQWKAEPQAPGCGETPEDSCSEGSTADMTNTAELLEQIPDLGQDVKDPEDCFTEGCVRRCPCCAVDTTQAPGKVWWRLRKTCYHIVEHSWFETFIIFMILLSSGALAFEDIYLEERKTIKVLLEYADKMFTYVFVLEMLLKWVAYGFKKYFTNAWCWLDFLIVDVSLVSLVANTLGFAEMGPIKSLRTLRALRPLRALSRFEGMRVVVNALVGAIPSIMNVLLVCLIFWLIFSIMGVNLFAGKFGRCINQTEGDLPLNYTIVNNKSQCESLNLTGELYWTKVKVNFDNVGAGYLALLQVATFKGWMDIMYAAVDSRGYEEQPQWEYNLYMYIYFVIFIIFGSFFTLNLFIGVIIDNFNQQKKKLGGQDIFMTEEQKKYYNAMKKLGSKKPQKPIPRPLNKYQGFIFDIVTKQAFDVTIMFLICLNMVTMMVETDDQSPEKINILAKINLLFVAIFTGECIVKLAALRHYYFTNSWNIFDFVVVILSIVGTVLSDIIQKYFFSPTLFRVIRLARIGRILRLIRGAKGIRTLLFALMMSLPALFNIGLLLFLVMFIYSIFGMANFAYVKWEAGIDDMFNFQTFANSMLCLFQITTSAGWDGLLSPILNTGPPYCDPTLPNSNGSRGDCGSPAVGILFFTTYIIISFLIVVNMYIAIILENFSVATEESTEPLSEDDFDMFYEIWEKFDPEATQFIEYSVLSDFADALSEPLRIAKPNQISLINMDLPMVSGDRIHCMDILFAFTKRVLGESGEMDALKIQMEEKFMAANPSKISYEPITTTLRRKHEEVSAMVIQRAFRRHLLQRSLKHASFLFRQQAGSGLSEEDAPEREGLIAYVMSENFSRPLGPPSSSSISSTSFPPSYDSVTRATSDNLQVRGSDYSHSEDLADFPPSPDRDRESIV
assay: Inhibition of human Nav1.5 expressed in CHO-K1 cells preincubated for 3 mins followed by incubation under atrial fibrillation-mimicking condition at 5 Hz with -85 mV holding potential for 12 sec by automated Qpatch electrophysiological recording
Format: cell-based
pIC50: −log10 of the molar value.
endpoint-name: pIC50

{"mol": "C[C@@](O)(CS(N)(=O)=O)c1cccc(-c2nnn(Cc3cc(OC(F)(F)F)ccc3F)n2)n1", "system-name": "Sodium channel protein type 5 subunit alpha (Homo sapiens, UniProt Q14524)", "observed-value": 6.00}
{"mol": "C[C@@](O)(CS(N)(=O)=O)c1ccc(Cl)c(-c2nnn(Cc3cc(OC(F)(F)F)ccc3F)n2)c1", "system-name": "Sodium channel protein type 5 subunit alpha (Homo sapiens, UniProt Q14524)", "observed-value": 5.89}
{"mol": "C[C@@](O)(CS(N)(=O)=O)c1ccc(F)c(-c2nnn(Cc3cc(OC(F)(F)F)ccc3F)n2)c1", "system-name": "Sodium channel protein type 5 subunit alpha (Homo sapiens, UniProt Q14524)", "observed-value": 6.00}
{"mol": "C[C@](O)(CS(N)(=O)=O)c1cccc(-c2nnn(Cc3cc(OC(F)(F)F)ccc3F)n2)n1", "system-name": "Sodium channel protein type 5 subunit alpha (Homo sapiens, UniProt Q14524)", "observed-value": 6.10}
{"mol": "C[C@](O)(CS(N)(=O)=O)c1ccc(Cl)c(-c2nnn(Cc3cc(OC(F)(F)F)ccc3F)n2)c1", "system-name": "Sodium channel protein type 5 subunit alpha (Homo sapiens, UniProt Q14524)", "observed-value": 5.89}
